Data origin, for the record: paper PMC9543606

target: VEGF (Homo sapiens, UniProt P15692); settings: ITC, 37 °C, 50 mM HEPES/NaOH, 150 mM NaCl, pH 7.5; first binding site; calculated from Kd (Eq. 1); 95 % confidence interval in brackets
Sequence (P15692 219-313): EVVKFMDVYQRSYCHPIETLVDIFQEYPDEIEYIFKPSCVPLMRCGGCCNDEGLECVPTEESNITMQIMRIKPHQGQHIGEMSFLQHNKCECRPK
Where a SMILES comes first, the peptide text is derived from it. Bridges are numbered along the chain shown (N, C = ends). [ ]: non-standard residue; d: D form. Nle = CCCC[C@H](N)C(=O)O
readout_label: ΔG

Field: example entries. Status: answers known.
CCCC[C@@H]1NC(=O)[C@H](C(C)C)NC(=O)[C@H](Cc2c[nH]cn2)NC(=O)[C@H]([C@@H](C)CC)NC(=O)[C@H](CC(=O)O)NC(=O)[C@@H](N)CSSC[C@@H](C(=O)N[C@@H](Cc2ccccc2)C(=O)N[C@@H](CCC(=O)O)C(=O)N[C@@H](CCCCN)C(=O)N[C@@H](CC(C)C)C(N)=O)NC(=O)[C@H](CC(=O)O)NC(=O)[C@H](Cc2c[nH]c3ccccc23)NC(=O)[C@H](CCC(=O)O)NC(=O)[C@H](Cc2c[nH]c3ccccc23)NC1=O
−8.76 [−8.82; −8.70] kcal⋅mol^−1
CCCC[C@@H]1NC(=O)[C@H](C(C)C)NC(=O)[C@H](Cc2c[nH]cn2)NC(=O)[C@H]([C@@H](C)CC)NC(=O)[C@H](CC(=O)O)NC(=O)[C@@H](N)CSSC[C@@H]2NC(=O)[C@H](CCC(=O)NCCCC[C@@H](C(=O)N[C@@H](CC(C)C)C(N)=O)NC(=O)[C@H](CCC(=O)O)NC(=O)[C@H](Cc3ccccc3)NC2=O)NC(=O)[C@H](Cc2c[nH]c3ccccc23)NC(=O)[C@H](CCC(=O)O)NC(=O)[C@H](Cc2c[nH]c3ccccc23)NC1=O
−9.61 [−9.71; −9.52] kcal⋅mol^−1

Please look at the following molecule next.
Could you share which ΔG value was measured for CCCC[C@@H]1NC(=O)[C@H](C(C)C)NC(=O)[C@H](Cc2c[nH]cn2)NC(=O)[C@H]([C@@H](C)CC)NC(=O)[C@H](CC(=O)O)NC(=O)[C@@H](N)CSSC[C@@H]2NC(=O)[C@H](CCCCNC(=O)CC[C@@H](C(=O)N[C@@H](CC(C)C)C(N)=O)NC(=O)[C@H](CCC(=O)O)NC(=O)[C@H](Cc3ccccc3)NC2=O)NC(=O)[C@H](Cc2c[nH]c3ccccc23)NC(=O)[C@H](CCC(=O)O)NC(=O)[C@H](Cc2c[nH]c3ccccc23)NC1=O [4 c] (H-CDIHV[Nle]WEWKCFEEL-NH2; disulfide 1-11; lactam 10-14) ? −8.68 [−8.79; −8.56] kcal⋅mol^−1

----------
molecular target: VEGF (Homo sapiens, UniProt P15692); details: ITC, 20 °C, 50 mM HEPES/NaOH, 150 mM NaCl, pH 7.5; first binding site; calculated from ΔG and ΔH (Eq. 2); 95 % confidence interval in brackets
Where a SMILES comes first, the peptide text is derived from it. Bridges are numbered along the chain shown (N, C = ends). [ ]: non-standard residue; d: D form. Nle = CCCC[C@H](N)C(=O)O
readout_label: −TΔS

Could you share which −TΔS value was measured for CCCC[C@@H]1NC(=O)[C@H](C(C)C)NC(=O)[C@H](Cc2c[nH]cn2)NC(=O)[C@H]([C@@H](C)CC)NC(=O)[C@H](CC(=O)O)NC(=O)[C@@H](N)CSSC[C@@H](C(=O)N[C@@H](Cc2ccccc2)C(=O)N[C@@H](CCC(=O)O)C(=O)N[C@@H](CCC(=O)O)C(=O)N[C@@H](CC(C)C)C(N)=O)NC(=O)[C@H](CCCCN)NC(=O)[C@H](Cc2c[nH]c3ccccc23)NC(=O)[C@H](CCC(=O)O)NC(=O)[C@H](Cc2c[nH]c3ccccc23)NC1=O [compound 4] (H-CDIHV[Nle]WEWKCFEEL-NH2; disulfide 1-11) ? 8.2 [7.8; 8.5] kcal⋅mol^−1

----------
target: VEGF (Homo sapiens); conditions: ITC, 37 °C, 50 mM HEPES/NaOH, 150 mM NaCl, pH 7.5; first binding site; calculated from Kd (Eq. 1); 95 % confidence interval in brackets
Where a SMILES comes first, the peptide text is derived from it. Bridges are numbered along the chain shown (N, C = ends). [ ]: non-standard residue; d: D form. Nle = CCCC[C@H](N)C(=O)O
Entries and their measured ΔG follow.

CCCC[C@@H]1NC(=O)[C@H](C(C)C)NC(=O)[C@H](Cc2c[nH]cn2)NC(=O)[C@H]([C@@H](C)CC)NC(=O)[C@H](CC(=O)O)NC(=O)[C@@H](N)CSSC[C@@H](C(=O)N[C@@H](Cc2ccccc2)C(=O)N[C@@H](CCC(=O)O)C(=O)N[C@@H](CCC(=O)O)C(=O)N[C@@H](CC(C)C)C(N)=O)NC(=O)[C@H](CCCCN)NC(=O)[C@H](Cc2c[nH]c3ccccc23)NC(=O)[C@H](CCC(=O)O)NC(=O)[C@H](Cc2c[nH]c3ccccc23)NC1=O [compound 4] (H-CDIHV[Nle]WEWKCFEEL-NH2; disulfide 1-11)
−8.71 [−8.80; −8.63] kcal⋅mol^−1

Please look at the following compound next.
Could you share which ΔG value was measured for CCCC[C@@H]1NC(=O)[C@H](C(C)C)NC(=O)[C@H](Cc2c[nH]cn2)NC(=O)[C@H]([C@@H](C)CC)NC(=O)[C@H](CC(=O)O)NC(=O)[C@@H](N)CSSC[C@@H](C(=O)N[C@@H](Cc2ccccc2)C(=O)N[C@@H](CCC(=O)O)C(=O)N[C@@H](CC(=O)O)C(=O)N[C@@H](CC(C)C)C(N)=O)NC(=O)[C@H](CCCCN)NC(=O)[C@H](Cc2c[nH]c3ccccc23)NC(=O)[C@H](CCC(=O)O)NC(=O)[C@H](Cc2c[nH]c3ccccc23)NC1=O [compound 1] (H-CDIHV[Nle]WEWKCFEDL-NH2; disulfide 1-11) ? −8.51 [−8.56; −8.46] kcal⋅mol^−1

----------
target: UniProtKB P15692; details: ITC; heat capacity change on binding from ΔH at 20 °C and 37 °C (Eq. 3); 95 % confidence interval in brackets
readout_label: ΔCp

CCCC[C@@H]1NC(=O)[C@H](C(C)C)NC(=O)[C@H](Cc2c[nH]cn2)NC(=O)[C@H]([C@@H](C)CC)NC(=O)[C@H](CC(=O)O)NC(=O)[C@@H](N)CSSC[C@@H](C(=O)N[C@@H](Cc2ccccc2)C(=O)N[C@@H](CCC(=O)O)C(=O)N[C@@H](CCCCN)C(=O)N[C@@H](CC(C)C)C(N)=O)NC(=O)[C@H](CC(=O)O)NC(=O)[C@H](Cc2c[nH]c3ccccc23)NC(=O)[C@H](CCC(=O)O)NC(=O)[C@H](Cc2c[nH]c3ccccc23)NC1=O [compound 2]
−0.36 [−0.40; −0.32] kcal⋅mol^−1.K^−1

Please look at the following compound next.
Could you share which ΔCp value was measured for CCCC[C@@H]1NC(=O)[C@H](C(C)C)NC(=O)[C@H](Cc2c[nH]cn2)NC(=O)[C@H]([C@@H](C)CC)NC(=O)[C@H](CC(=O)O)NC(=O)[C@@H](N)CSSC[C@@H]2NC(=O)[C@H](CCC(=O)NCCCC[C@@H](C(=O)N[C@@H](CC(C)C)C(N)=O)NC(=O)[C@H](CCC(=O)O)NC(=O)[C@H](Cc3ccccc3)NC2=O)NC(=O)[C@H](Cc2c[nH]c3ccccc23)NC(=O)[C@H](CCC(=O)O)NC(=O)[C@H](Cc2c[nH]c3ccccc23)NC1=O [3 c] ? −0.38 [−0.41; −0.35] kcal⋅mol^−1.K^−1

----------
target: UniProt:P15692; settings: ITC, 37 °C, 50 mM HEPES/NaOH, 150 mM NaCl, pH 7.5; first binding site; normalised on reverse titrations; 95 % confidence interval in brackets
Where a SMILES comes first, the peptide text is derived from it. Bridges are numbered along the chain shown (N, C = ends). [ ]: non-standard residue; d: D form. Nle = CCCC[C@H](N)C(=O)O
readout_label: ΔH

Field: example entries. Status: answers known.
CCCC[C@@H]1NC(=O)[C@H](C(C)C)NC(=O)[C@H](Cc2c[nH]cn2)NC(=O)[C@H]([C@@H](C)CC)NC(=O)[C@H](CC(=O)O)NC(=O)[C@@H](N)CSSC[C@@H](C(=O)N[C@@H](Cc2ccccc2)C(=O)N[C@@H](CCC(=O)O)C(=O)N[C@@H](CCC(=O)O)C(=O)N[C@@H](CC(C)C)C(N)=O)NC(=O)[C@H](CCCCN)NC(=O)[C@H](Cc2c[nH]c3ccccc23)NC(=O)[C@H](CCC(=O)O)NC(=O)[C@H](Cc2c[nH]c3ccccc23)NC1=O [compound 4] (H-CDIHV[Nle]WEWKCFEEL-NH2; disulfide 1-11)
−23.0 [−23.7; −22.3] kcal⋅mol^−1
CCCC[C@@H]1NC(=O)[C@H](C(C)C)NC(=O)[C@H](Cc2c[nH]cn2)NC(=O)[C@H]([C@@H](C)CC)NC(=O)[C@H](CC(=O)O)NC(=O)[C@@H](N)CSSC[C@@H](C(=O)N[C@@H](Cc2ccccc2)C(=O)N[C@@H](CCC(=O)O)C(=O)N[C@@H](CC(=O)O)C(=O)N[C@@H](CC(C)C)C(N)=O)NC(=O)[C@H](CCCCN)NC(=O)[C@H](Cc2c[nH]c3ccccc23)NC(=O)[C@H](CCC(=O)O)NC(=O)[C@H](Cc2c[nH]c3ccccc23)NC1=O [compound 1] (H-CDIHV[Nle]WEWKCFEDL-NH2; disulfide 1-11)
−22.8 [−23.1; −22.4] kcal⋅mol^−1

Could you share which ΔH value was measured for CCCC[C@@H]1NC(=O)[C@H](C(C)C)NC(=O)[C@H](Cc2c[nH]cn2)NC(=O)[C@H]([C@@H](C)CC)NC(=O)[C@H](CC(=O)O)NC(=O)[C@@H](N)CSSC[C@@H]2NC(=O)[C@H](CCC(=O)NCCCC[C@@H](C(=O)N[C@@H](CC(C)C)C(N)=O)NC(=O)[C@H](CCC(=O)O)NC(=O)[C@H](Cc3ccccc3)NC2=O)NC(=O)[C@H](Cc2c[nH]c3ccccc23)NC(=O)[C@H](CCC(=O)O)NC(=O)[C@H](Cc2c[nH]c3ccccc23)NC1=O ? −22.4 [−22.8; −22.0] kcal⋅mol^−1
